Target Or System: human GCG receptor (human, UniProt P47871 26-477)
Sequence (P47871 26-477): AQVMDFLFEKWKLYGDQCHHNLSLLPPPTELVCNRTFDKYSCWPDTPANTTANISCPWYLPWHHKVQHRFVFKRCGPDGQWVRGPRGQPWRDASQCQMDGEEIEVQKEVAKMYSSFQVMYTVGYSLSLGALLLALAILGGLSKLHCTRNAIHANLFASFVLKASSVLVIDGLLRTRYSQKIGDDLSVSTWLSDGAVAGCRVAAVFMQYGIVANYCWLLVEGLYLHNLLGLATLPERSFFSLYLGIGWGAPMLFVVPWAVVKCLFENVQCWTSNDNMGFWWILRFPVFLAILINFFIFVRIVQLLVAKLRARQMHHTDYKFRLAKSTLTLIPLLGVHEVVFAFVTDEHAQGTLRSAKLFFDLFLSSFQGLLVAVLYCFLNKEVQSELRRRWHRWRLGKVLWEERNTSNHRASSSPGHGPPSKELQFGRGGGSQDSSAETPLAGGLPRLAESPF
Test Protocol: cell-based or functional assay
Bridge positions count the residues as written; N and C are the ends. Square brackets hold non-standard residues; d marks the D form. Ends that are not written are not given here. * marks the point of attachment. Acetyl(2-(4-imidazolyl)) = O=C(Cc1c[nH]cn1)*; Aib = CC(C)(N)C(=O)O
Reported Property: In vitro activity compared to native-type peptide (%), vs Glucagon

{"columns": ["Binder", "Value Prefix", "Measured"],
 "data": [
  ["Y[Aib]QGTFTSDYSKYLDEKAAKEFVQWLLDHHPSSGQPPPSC (bridge 16-20) [triple agonist of SEQ ID NO: 75]", "=", 8.5],
  ["[Acetyl(2-(4-imidazolyl))]GQGTFTSDLSKQMDSEAQQLFIEWLKNGGPSSGAPPPSHG [triple agonist of SEQ ID NO: 16]", "<", 0.1],
  ["H[Aib]QGTFTSDVSKYLDGQAAKEFVAWLLKGC [triple agonist of SEQ ID NO: 7]", "<", 0.1],
  ["Y[Aib]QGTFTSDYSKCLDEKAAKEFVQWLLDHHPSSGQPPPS (bridge 16-20) [triple agonist of SEQ ID NO: 68]", "=", 8.8],
  ["H[Aib]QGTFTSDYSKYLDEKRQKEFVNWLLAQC (also: ring formation (underlined residues), positions not given here) [triple agonist of SEQ ID NO: 56]", "=", 4.9],
  ["H[Aib]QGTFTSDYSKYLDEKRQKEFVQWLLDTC (bridge 16-20) [triple agonist of SEQ ID NO: 52]", "=", 7.5],
  ["HGQGTFTSDCSKYLDGQRAQDFVNWLLAGGPSSGAPPPS [triple agonist of SEQ ID NO: 48]", "<", 0.1],
  ["Y[Aib]QGTFTSDYSKYLDECRAKEFVQWLKNGGPSSGAPPPS (bridge 16-20) [triple agonist of SEQ ID NO: 24]", "=", 9.3],
  ["Y[Aib]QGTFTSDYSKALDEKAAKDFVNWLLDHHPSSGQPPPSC (bridge 16-20) [triple agonist of SEQ ID NO: 99]", "=", 14.9],
  ["Y[Aib]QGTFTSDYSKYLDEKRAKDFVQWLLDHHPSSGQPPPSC (bridge 16-20) [triple agonist of SEQ ID NO: 76]", "=", 47.6],
  ["{Acetyl(2-(4-imidazolyl))}-[Aib]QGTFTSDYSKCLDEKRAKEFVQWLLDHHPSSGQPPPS (bridge 15-19) [triple agonist of SEQ ID NO: 74]", "=", 0.9],
  ["H[Aib]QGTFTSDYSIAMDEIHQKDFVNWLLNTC (bridge 16-20) [triple agonist of SEQ ID NO: 57]", "<", 0.1],
  ["Y[Aib]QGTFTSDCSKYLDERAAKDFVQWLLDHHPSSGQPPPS (bridge 16-20) [triple agonist of SEQ ID NO: 72]", "=", 1],
  ["{Acetyl(2-(4-imidazolyl))}-[Aib]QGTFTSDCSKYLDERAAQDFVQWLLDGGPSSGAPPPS [triple agonist of SEQ ID NO: 63]", "<", 0.1],
  ["[Acetyl(2-(4-imidazolyl))]GQGTFTSDLSKQMDSERAREFIEWLKNTGPSSGAPPPSHG [triple agonist of SEQ ID NO: 18]", "<", 0.1],
  ["H[Aib]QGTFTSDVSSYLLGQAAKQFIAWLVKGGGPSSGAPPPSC [triple agonist of SEQ ID NO: 3]", "<", 0.1],
  ["H[Aib]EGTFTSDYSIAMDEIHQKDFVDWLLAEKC (bridge 16-20) [triple agonist of SEQ ID NO: 80]", "=", 0],
  ["Y[Aib]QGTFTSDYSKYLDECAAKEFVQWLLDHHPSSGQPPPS (bridge 16-20) [triple agonist of SEQ ID NO: 64]", "=", 60.1],
  ["Y[Aib]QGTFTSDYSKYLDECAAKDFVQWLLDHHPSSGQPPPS (also: ring formation (underlined residues), positions not given here) [triple agonist of SEQ ID NO: 67]", "=", 46.2],
  ["[Acetyl(2-(4-imidazolyl))]GEGTFTSDLSKYLDSRRQQLFVQWLKAGGPSSGAPPPSHG [triple agonist of SEQ ID NO: 11]", "<", 0.1],
  ["Y[Aib]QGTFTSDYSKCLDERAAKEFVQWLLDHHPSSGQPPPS (bridge 16-20) [triple agonist of SEQ ID NO: 69]", "=", 9.6]
]}
